B1: SLC25A39 (parent)
chain: LTSDLYAPMVAGALARLGTVTVIS

- Variants of: B1
- procedure.text: protein stability index of a GFP-peptide fusion (GPS, HEK-293T) (PSI 1-6); higher = more stable;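 further: lentivirally expressed fusions sorted by FACS into six bins by GFP to DsRed ratio, PSI derived from sequencing read proportions per bin multiplied by bin number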
- details: c terminus: a fixed tail appended
Note: every record was labeled by where its protein stability index sits among low end: < 2; middle: ≥ 2 and < 3; high end: ≥ 3

Place this variant in its band: `LTSDLFAPMVAGALARLGTVTVIS`
high end

# repeat for `LTSDLYAPMVAGAPARLGTVTVIS`
middle

# repeat for `LTSDLYAPMVAGALARLGTVTVDS`
middle

# repeat for `LTSDLRAPMVAGALARLGTVTVIS`
low end

# repeat for `LTSDLYAPMVAGALARLGKVTVIS`
middle

# repeat for `LTSDLYAPMVAGALARLGTVTRIS`
middle

# repeat for `LTQDLYAPMVAGALARLGTVTVIS`
low end

# repeat for `LTSDLYAPMVAGALERLGTVTVIS`
low end

# repeat for `STSDLYAPMVAGALARLGTVTVIS`
low end

# repeat for `LTSDIYAPMVAGALARLGTVTVIS`
low end

# repeat for `LTSDLYAPMMAGALARLGTVTVIS`
high end

# repeat for `LYSDLYAPMVAGALARLGTVTVIS`
high end

# repeat for `LKSDLYAPMVAGALARLGTVTVIS`
low end

# repeat for `LASDLYAPMVAGALARLGTVTVIS`
high end

# repeat for `LTSDLYAPMVAGALASLGTVTVIS`
middle

# repeat for `LTSDRYAPMVAGALARLGTVTVIS`
middle

# repeat for `LTSDLYAPMVAGALARCGTVTVIS`
low end

# repeat for `LTSDLYAPMVAGALARLGTRTVIS`
low end

# repeat for `LTSDLMAPMVAGALARLGTVTVIS`
middle

# repeat for `LTSDLAAPMVAGALARLGTVTVIS`
middle

# repeat for `LTSDLYAMMVAGALARLGTVTVIS`
high end

# repeat for `LSSDLYAPMVAGALARLGTVTVIS`
middle

# repeat for `LTSDLYAPMVAGALARLGGVTVIS`
low end

# repeat for `LTSDLYASMVAGALARLGTVTVIS`
high end

# repeat for `LTSDLYAPMVHGALARLGTVTVIS`
middle

# repeat for `LTSDLYAPLVAGALARLGTVTVIS`
high end

# repeat for `LTSDLYAPMVAGAAARLGTVTVIS`
low end

# repeat for `LTVDLYAPMVAGALARLGTVTVIS`
high end

# repeat for `LTSDLYAPIVAGALARLGTVTVIS`
middle

# repeat for `LTLDLYAPMVAGALARLGTVTVIS`
high end

# repeat for `LTSDLYAPMVAGALAALGTVTVIS`
middle

# repeat for `LTSDLDAPMVAGALARLGTVTVIS`
low end

# repeat for `LTSDLYAPMVAGALARLPTVTVIS`
middle

# repeat for `LTSDSYAPMVAGALARLGTVTVIS`
middle

# repeat for `LTSDLYAPMVAGALARLGTVTPIS`
low end

# repeat for `LTSDLYAEMVAGALARLGTVTVIS`
high end

# repeat for `LTSDCYAPMVAGALARLGTVTVIS`
high end

# repeat for `LTSDLYAPPVAGALARLGTVTVIS`
low end

# repeat for `LTSDKYAPMVAGALARLGTVTVIS`
high end

# repeat for `LTSDLYAPMVAGALARLGTVTVLS`
middle

# repeat for `LTSDLYAPMVAGALARLGTVTVID`
high end

# repeat for `LTSDLYAPMVAGMLARLGTVTVIS`
high end
